Target: c-Met (Homo sapiens, UniProt P08581)
Sequence (P08581 25-1390): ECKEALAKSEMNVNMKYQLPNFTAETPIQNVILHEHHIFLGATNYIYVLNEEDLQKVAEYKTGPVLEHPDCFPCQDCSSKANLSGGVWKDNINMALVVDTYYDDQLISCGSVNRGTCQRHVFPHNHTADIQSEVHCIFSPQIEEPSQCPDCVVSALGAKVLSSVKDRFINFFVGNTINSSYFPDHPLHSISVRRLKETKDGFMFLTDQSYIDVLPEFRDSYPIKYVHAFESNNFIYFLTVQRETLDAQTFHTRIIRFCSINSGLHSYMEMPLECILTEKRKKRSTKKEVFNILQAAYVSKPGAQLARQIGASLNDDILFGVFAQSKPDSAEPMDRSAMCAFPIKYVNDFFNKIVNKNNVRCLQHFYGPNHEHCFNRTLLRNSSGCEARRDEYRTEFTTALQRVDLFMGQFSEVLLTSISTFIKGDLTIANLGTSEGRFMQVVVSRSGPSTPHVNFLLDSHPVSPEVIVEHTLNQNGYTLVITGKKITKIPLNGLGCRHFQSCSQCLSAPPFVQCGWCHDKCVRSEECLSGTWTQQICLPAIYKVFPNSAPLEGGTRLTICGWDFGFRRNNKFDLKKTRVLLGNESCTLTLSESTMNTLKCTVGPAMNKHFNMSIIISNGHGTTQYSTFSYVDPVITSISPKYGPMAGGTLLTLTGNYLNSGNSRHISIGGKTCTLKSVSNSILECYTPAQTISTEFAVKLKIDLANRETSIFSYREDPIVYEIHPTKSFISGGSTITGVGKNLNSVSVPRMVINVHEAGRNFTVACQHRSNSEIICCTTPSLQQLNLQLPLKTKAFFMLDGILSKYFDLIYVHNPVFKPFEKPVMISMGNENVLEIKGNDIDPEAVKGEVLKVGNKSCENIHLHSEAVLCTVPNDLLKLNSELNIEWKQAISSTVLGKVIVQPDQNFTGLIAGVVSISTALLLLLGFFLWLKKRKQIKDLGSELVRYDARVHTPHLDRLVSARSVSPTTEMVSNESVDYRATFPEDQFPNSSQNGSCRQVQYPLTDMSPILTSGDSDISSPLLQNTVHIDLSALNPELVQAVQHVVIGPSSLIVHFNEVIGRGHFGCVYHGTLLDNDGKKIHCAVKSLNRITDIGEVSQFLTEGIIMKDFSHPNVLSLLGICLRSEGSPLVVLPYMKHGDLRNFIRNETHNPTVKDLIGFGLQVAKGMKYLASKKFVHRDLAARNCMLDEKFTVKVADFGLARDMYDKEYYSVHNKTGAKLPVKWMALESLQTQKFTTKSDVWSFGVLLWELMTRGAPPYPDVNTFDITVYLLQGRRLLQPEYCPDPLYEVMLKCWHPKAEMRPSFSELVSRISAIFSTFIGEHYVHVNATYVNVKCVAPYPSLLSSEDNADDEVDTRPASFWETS
pIC50: −log10 of the molar value.
observable: pIC50

> print(dat)
                                   compound  observable  recordedmeasurement
1  COc1ncc(-c2ccc3ncc(C(=O)NCCN4CCOCC4)n3c2)cc1NS(=O)(=O)c1ccc(F)cc1F [DFX117]       pIC50                 7.77
